Listing of recorded EC50 by entry.
target: human soluble guanylate cyclase alpha 1 and beta 1 subunits (sGC) (Homo sapiens (Human), UniProt Q02108+Q02153)
Sequence (Q02108 whole entry partner): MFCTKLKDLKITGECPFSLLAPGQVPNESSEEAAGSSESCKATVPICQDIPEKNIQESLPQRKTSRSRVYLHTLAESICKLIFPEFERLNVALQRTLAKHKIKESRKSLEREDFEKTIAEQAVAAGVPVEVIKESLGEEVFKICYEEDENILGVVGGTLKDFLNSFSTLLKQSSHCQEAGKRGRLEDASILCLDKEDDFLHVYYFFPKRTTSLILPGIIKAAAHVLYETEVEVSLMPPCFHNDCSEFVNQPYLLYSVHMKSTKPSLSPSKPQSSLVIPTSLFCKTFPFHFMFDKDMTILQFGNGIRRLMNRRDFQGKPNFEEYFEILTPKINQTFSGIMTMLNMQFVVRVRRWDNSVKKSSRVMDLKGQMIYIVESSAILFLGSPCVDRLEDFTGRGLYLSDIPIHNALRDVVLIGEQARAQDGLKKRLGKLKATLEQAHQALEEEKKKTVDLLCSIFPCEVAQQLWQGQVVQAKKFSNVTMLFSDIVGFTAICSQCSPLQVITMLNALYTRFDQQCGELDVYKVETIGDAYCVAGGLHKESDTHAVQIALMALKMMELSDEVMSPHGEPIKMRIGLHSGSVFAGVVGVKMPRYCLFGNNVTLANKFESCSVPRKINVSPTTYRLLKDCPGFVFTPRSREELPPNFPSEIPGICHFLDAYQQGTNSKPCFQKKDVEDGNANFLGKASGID
Sequence (Q02153 whole entry): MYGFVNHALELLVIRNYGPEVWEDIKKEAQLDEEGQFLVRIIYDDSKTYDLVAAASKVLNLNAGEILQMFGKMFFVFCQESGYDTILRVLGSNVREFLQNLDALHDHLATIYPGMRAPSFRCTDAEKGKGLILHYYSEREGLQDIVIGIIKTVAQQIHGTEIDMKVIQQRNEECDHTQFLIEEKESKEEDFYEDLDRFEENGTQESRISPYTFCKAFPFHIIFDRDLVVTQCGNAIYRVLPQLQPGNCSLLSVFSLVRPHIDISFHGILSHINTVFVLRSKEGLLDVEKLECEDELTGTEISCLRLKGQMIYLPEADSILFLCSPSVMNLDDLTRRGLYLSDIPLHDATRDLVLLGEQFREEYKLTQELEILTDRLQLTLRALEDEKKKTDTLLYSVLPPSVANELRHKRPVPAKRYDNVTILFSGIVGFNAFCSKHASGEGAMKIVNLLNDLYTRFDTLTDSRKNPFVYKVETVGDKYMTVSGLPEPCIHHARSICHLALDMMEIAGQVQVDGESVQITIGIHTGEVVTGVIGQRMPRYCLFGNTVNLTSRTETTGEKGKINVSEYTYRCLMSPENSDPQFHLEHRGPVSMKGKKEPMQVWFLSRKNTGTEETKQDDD
measurement-protocol: sGC cellular activator assay (cGMP, HTRF), in the presence and absence of 50% human serum
condition: CHO cells stably expressing human sGC alpha 1/beta 1, preincubated with 40 microM ODQ; cGMP by HTRF; Table 2 does not state whether with or without 50% human serum
Experimental: The sGC cellular activator assay is performed in the presence and absence of 50% human serum (HS) using Chinese hamster ovary cells that have been stably transfected to express the human soluble guanylate cyclase alpha 1 and beta 1 subunits (sGC). […] Diluted compounds are added to cells and they are incubated at room temperature for thirty min. cGMP is measured using a CisBio homogeneous time resolved fluorescence kit and the EC50 is calculated for each compound. […]
Give the number; µM is assumed, so skip it.

## Input Value lookup for EC50; key = CO[C@H]1CN(c2nc(-c3cccc(C)c3OCc3ccc4c(c3C)CCN(C3CCOCC3)C4)cs2)CC[C@H]1C(=O)O [Compound 165]
## Output 0.012

## Input Value lookup for EC50; key = CO[C@@H]1CN(c2cccc(-c3cccc(C)c3OCc3ccc4c(c3C)CCN(C3COC3)CC4)n2)CC[C@@H]1C(=O)O [Compound 196]
## Output 0.003

## Input Value lookup for EC50; key = Cc1ccc(OCc2ccc3c(c2C)CCN(C2COC2)C3)c(-c2csc(N3CC[C@@]4(C(=O)O)C[C@H]4C3)n2)c1 [Compound 116]
## Output 0.035

====

measurement-protocol: physchem
condition: pH 6.8, aqueous buffer, kinetic from dmso stock, Solubility (pH 6.8)
Output condition met for solubility at 24 h not less than 40 µg/mL; output condition not met otherwise.

compound	assigned-class
COc1cc(COc2c(C)cccc2-c2csc(N3CC[C@@H](C(=O)O)[C@@H](OC)C3)n2)cc2c1CN(C1COC1)CC2 [Compound 209]	condition met
CCO[C@H]1CN(c2nc(-c3cc(C)ccc3OCc3cc4c(c(OC)c3)CN(C3CCOCC3)CC4)cs2)CC[C@H]1C(=O)O [Compound 233]	condition met
Cc1cccc(-c2csc(N3CC[C@@]4(C(=O)O)C[C@H]4C3)n2)c1OCc1ccc2c(c1C)CCN(C1CCOC1)CC2 (stereo partly drawn) [Compound 106]	condition met
Cc1cc(COc2c(C)cccc2-c2csc(N3CC[C@@]4(C(=O)O)C[C@H]4C3)n2)cc2c1CN(C1CCCOC1)CC2 (stereo partly drawn) [Compound 94]	condition not met
COC[C@H]1N(c2cccc(-c3cccc(C)c3OCc3ccc4c(c3C)CN(C3CCOCC3)C4)n2)C[C@@H]2C[C@@]21C(=O)O [Compound 223]	condition met

Please turn your attention to the following entry.
## Input Please check the record Cc1cc(COc2c(C)cccc2-c2csc(N3CC[C@@]4(C(=O)O)C[C@H]4C3)n2)c(C)c2c1CN(C1CCCOC1)CC2 (stereo partly drawn) [Compound 99] and state if its solubility at 24 h is at or above 40 µg/mL.
## Output condition not met

====

target: human soluble guanylate cyclase alpha 1 and beta 1 subunits (sGC) (Homo sapiens (Human), UniProt Q02108+Q02153)
measurement-protocol: sGC cellular activator assay (cGMP, HTRF), in the presence and absence of 50% human serum
condition: CHO cells stably expressing human sGC alpha 1/beta 1, preincubated with 40 microM ODQ; cGMP by HTRF; Table 2 does not state whether with or without 50% human serum
Method: The sGC cellular activator assay is performed in the presence and absence of 50% human serum (HS) using Chinese hamster ovary cells that have been stably transfected to express the human soluble guanylate cyclase alpha 1 and beta 1 subunits (sGC). […] Diluted compounds are added to cells and they are incubated at room temperature for thirty min. cGMP is measured using a CisBio homogeneous time resolved fluorescence kit and the EC50 is calculated for each compound. […]
So basically: is EC50 under 20 nM? Then TRUE. Not under? Then FALSE.

Please review the following examples before continuing.
compound	assigned-class
Cc1cccc(-c2cccc(N3CC4OCC3C4C(=O)O)n2)c1OCc1ccc2c(c1C)CCN(C1CCOCC1)C2 (stereo not shown)	FALSE
COc1cc(COc2ccc(C)cc2-c2csc(N3CC[C@@H](C(=O)O)[C@@H](OC)C3)n2)c(F)c2c1CN(C1CCOCC1)CC2	TRUE
COC[C@H]1N(c2cccc(-c3cccc(C)c3OCc3ccc4c(c3)[C@@H](C)CN(C3CCOCC3)CC4)n2)C[C@@H]2C[C@@]21C(=O)O	TRUE
Cc1ccc(OCc2ccc3c(c2)CCN(C2COC2)CC3)c(-c2csc(N3C[C@@H]4C[C@]4(C(=O)O)C3)n2)c1	FALSE

## Input Dear colleague, could you confirm whether EC50 of `Cc1ccc(OCc2cc(C)c3c(c2)CCN(C2COC2)C3)c(-c2csc(N3CC[C@@]4(C(=O)O)C[C@H]4C3)n2)c1` falls below 20 nM? Thanks.
## Output TRUE

## Input Dear colleague, could you confirm whether EC50 of `CO[C@H]1CN(c2nc(-c3cccc(C)c3OCc3ccc4c(c3C)CCN(C3CCOCC3)CC4)cs2)CC[C@H]1C(=O)O` falls below 20 nM? Thanks.
## Output TRUE

## Input Dear colleague, could you confirm whether EC50 of `Cc1cc(COc2c(C)cccc2-c2csc(N3CC[C@@]4(C(=O)O)C[C@H]4C3)n2)c(C)c2c1CN(C1COC1)CC2` falls below 20 nM? Thanks.
## Output TRUE

## Input Dear colleague, could you confirm whether EC50 of `Cc1cc(COc2c(C)cccc2-c2csc(N3CC[C@@]4(C(=O)O)C[C@H]4C3)n2)c(C)c2c1CN(C1CCOCC1)CC2` falls below 20 nM? Thanks.
## Output TRUE

## Input Dear colleague, could you confirm whether EC50 of `CCO[C@H]1CN(c2nccc(-c3cccc(C)c3OCc3cc4c(c(OC)c3)CN(C3CCOCC3)CC4)n2)CC[C@H]1C(=O)O` falls below 20 nM? Thanks.
## Output TRUE

## Input Dear colleague, could you confirm whether EC50 of `CO[C@@H]1CN(c2cccc(-c3cccc(C)c3OCc3ccc4c(c3C)CCN([C@H]3CCOC3)CC4)n2)CC[C@@H]1C(=O)O` falls below 20 nM? Thanks.
## Output TRUE

## Input Dear colleague, could you confirm whether EC50 of CO[C@H]1CN(c2nc(-c3cccc(C)c3OCc3cc(C)c4c(c3)CCN(CC3COCCO3)C4)cs2)CC[C@H]1C(=O)O (stereo partly shown) [Compound 168] falls below 20 nM? Thanks.
## Output FALSE

## Input Dear colleague, could you confirm whether EC50 of Cc1cc(COc2c(C)cccc2-c2cccc(N3C[C@@H]4C[C@]4(C(=O)O)C3)n2)cc2c1CN(C1CCOC1)CC2 (stereo partly shown) [Compound 25] falls below 20 nM? Thanks.
## Output TRUE

## Input Dear colleague, could you confirm whether EC50 of `CO[C@H]1CN(c2cccc(-c3cccc(C)c3OCc3ccc4c(c3F)CCN(C3CCOCC3)CC4)n2)CC[C@H]1C(=O)O` falls below 20 nM? Thanks.
## Output TRUE

====

Listing of recorded Metabolic stability (Qh %), % hepatic blood flow by entry.
measurement-protocol: Human liver microsome (HLM) metabolic stability assay
Type: in vitro ADME
condition: human liver microsomes

compound	reported-result
Cc1cc(COc2c(C)cccc2-c2csc(N3CC[C@@]4(C(=O)O)C[C@H]4C3)n2)cc2c1CN(C1CCOCC1)CC2	33%
Cc1ccc(OCc2ccc3c(c2C)CCN(C2CCOCC2)C3)c(-c2csc(N3C[C@@H]4C[C@]4(C(=O)O)[C@H]3C)n2)c1	<24%
COC[C@H]1N(c2cccc(-c3cc(C)ccc3OCc3cc(C)c4c(c3)CCN(C3CCOCC3)C4)n2)C[C@@H]2C[C@@]21C(=O)O	<24%
CO[C@@H]1CN(c2nc(-c3cccc(C)c3OCc3cc(C)c4c(c3)CCN(CC3COCCO3)C4)cs2)CC[C@@H]1C(=O)O (stereo partly drawn) [Compound 176]	<24%
COc1cc(COc2c(C)cccc2-c2cccc(N3CC[C@H](C(=O)O)[C@H](OC)C3)n2)cc2c1CN(C1CCOCC1)CC2	<24%

Consider now this further compound.
## Input Value lookup for Metabolic stability (Qh %), % hepatic blood flow; key = Cc1cc(COc2c(C)cccc2-c2cccc(N3C[C@@H]4C[C@]4(C(=O)O)C3)n2)cc2c1CN(C1CCOC1)CC2 (stereo partly drawn) [Compound 24]
## Output <24%

====

measurement-protocol: Human liver microsome (HLM) metabolic stability assay
Type: in vitro ADME
condition: human liver microsomes
Output true for Metabolic stability (Qh %), % hepatic blood flow not less than 40%; output false otherwise.

Please review the following examples before continuing.
compound	assigned-class
CO[C@H]1CN(c2nc(-c3cc(C)ccc3OCc3ccc4c(c3C)CCN(C3CCOCC3)C4)cs2)CC[C@H]1C(=O)O	false
CO[C@H]1CN(c2nc(-c3cccc(C)c3OCc3ccc4c(c3)[C@@H](C)CN(C3COC3)CC4)cs2)CC[C@H]1C(=O)O	false
COC[C@H]1N(c2cccc(-c3cccc(Cl)c3OCc3cc(C)c4c(c3)CCN(C3CCOCC3)C4)n2)C[C@@H]2C[C@@]21C(=O)O	false
CO[C@H]1CN(c2cccc(-c3cc(C)ccc3OCc3ccc4c(c3C)CCN(C3CCOCC3)CC4)n2)CC[C@H]1C(=O)O	false

## Input Please check the record CO[C@@H]1CN(c2nc(-c3cccc(C)c3OCc3cc(C)c4c(c3)CCN(CC3COCCO3)C4)cs2)CC[C@@H]1C(=O)O (stereo partly shown) [Compound 175] and state if its Metabolic stability (Qh %), % hepatic blood flow is at or above 40%.
## Output false

## Input Please check the record `CO[C@H]1CN(c2cccc(-c3cccc(C)c3OCc3ccc4c(c3C)CCN(C3COC3)CC4)n2)CC[C@H]1C(=O)O` and state if its Metabolic stability (Qh %), % hepatic blood flow is at or above 40%.
## Output true

## Input Please check the record `COC[C@H]1N(c2nc(-c3cccc(C)c3OCc3ccc4c(c3C)CCN(C3CCC3)C4)cs2)C[C@@H]2C[C@@]21C(=O)O` and state if its Metabolic stability (Qh %), % hepatic blood flow is at or above 40%.
## Output false
